From: ChEMBL document CHEMBL1153027

testedTarget: Cannabinoid receptor 2 (Homo sapiens)
Sequence (P34972 whole entry): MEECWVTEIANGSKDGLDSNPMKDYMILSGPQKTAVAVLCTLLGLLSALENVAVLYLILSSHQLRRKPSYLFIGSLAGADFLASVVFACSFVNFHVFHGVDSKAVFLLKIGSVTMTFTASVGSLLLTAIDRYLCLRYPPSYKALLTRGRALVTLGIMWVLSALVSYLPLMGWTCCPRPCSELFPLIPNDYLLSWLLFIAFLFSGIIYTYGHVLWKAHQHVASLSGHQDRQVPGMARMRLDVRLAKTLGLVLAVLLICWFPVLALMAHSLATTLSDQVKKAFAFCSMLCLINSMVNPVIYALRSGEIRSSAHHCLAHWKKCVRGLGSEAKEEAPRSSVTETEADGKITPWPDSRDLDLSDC
methodDescription: Agonist activity at human CB2 receptor expressed in CHO cells by [35]GTPgammaS binding assay
Under this convention, Y denotes EC50 strictly below 4000 nM and N denotes EC50 at or above 4000 nM.

INSERT INTO results (querysmiles, discretelabel) VALUES
  ('O=C(c1ccc2ccccc2n1)c1ccccc1C(F)(F)F', 'Y'),
  ('COc1cccc(C(=O)c2ccc3ccccc3n2)c1', 'Y'),
  ('CN(C)c1ccccc1C(=O)c1nccc2ccccc12', 'Y'),
  ('O=C(c1ccccc1)c1ccc2ccccc2n1', 'N'),
  ('O=C(c1ccccc1C(F)(F)F)c1nccc2ccccc12', 'Y'),
  ('O=C(c1ccc(C(F)(F)F)cc1)c1nccc2ccccc12', 'Y'),
  ('CN(C)c1ccccc1C(=O)c1ccc2ccccc2n1', 'Y'),
  ('O=C(c1cccc(C(F)(F)F)c1)c1ccc2ccccc2n1', 'N'),
  ('CN(C)c1ccc(C(=O)c2nccc3ccccc23)cc1', 'Y'),
  ('CN(C)c1ccc(C(=O)c2ccc3ccccc3n2)cc1', 'N'),
  ('COc1ccccc1C(=O)c1ccc2ccccc2n1', 'Y');

----------
testedTarget: Cannabinoid receptor 1 (Rattus norvegicus) (UniProt P20272)
Sequence (P20272 whole entry): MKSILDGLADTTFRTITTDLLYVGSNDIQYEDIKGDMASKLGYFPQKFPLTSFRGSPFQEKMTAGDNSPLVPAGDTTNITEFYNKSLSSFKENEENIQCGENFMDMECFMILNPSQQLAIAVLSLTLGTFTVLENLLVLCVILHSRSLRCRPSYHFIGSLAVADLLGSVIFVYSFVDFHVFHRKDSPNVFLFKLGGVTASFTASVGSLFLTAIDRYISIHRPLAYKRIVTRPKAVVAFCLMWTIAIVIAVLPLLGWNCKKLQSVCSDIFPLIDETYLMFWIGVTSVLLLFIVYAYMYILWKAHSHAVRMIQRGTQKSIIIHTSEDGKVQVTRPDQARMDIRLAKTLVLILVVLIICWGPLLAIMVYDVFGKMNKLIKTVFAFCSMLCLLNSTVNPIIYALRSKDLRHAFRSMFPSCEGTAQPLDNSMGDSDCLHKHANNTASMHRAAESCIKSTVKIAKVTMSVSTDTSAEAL
methodDescription: Agonist activity at rat cerebellar membrane CB1 receptor at 10 uM by [35]GTPgammaS binding assay relative to basal level
Type: functional
readoutKind: Activity (%)

INSERT INTO results (querysmiles, testedtarget, unitofmeasurement, measurednumber) VALUES
  ('O=C(c1ccc(Cl)cc1)c1ccc2ccccc2n1', 'Cannabinoid receptor 1 (Rattus norvegicus) (UniProt P20272)', '%', 101),
  ('COc1cccc(C(=O)c2nccc3ccccc23)c1', 'Cannabinoid receptor 1 (Rattus norvegicus) (UniProt P20272)', '%', 112),
  ('CN(C)c1ccc(C(=O)c2ccc3ccccc3n2)cc1', 'Cannabinoid receptor 1 (Rattus norvegicus) (UniProt P20272)', '%', 101),
  ('COc1ccc(C(=O)c2ccc3ccccc3n2)cc1', 'Cannabinoid receptor 1 (Rattus norvegicus) (UniProt P20272)', '%', 108),
  ('CN(C)c1ccccc1C(=O)c1ccc2ccccc2n1', 'Cannabinoid receptor 1 (Rattus norvegicus) (UniProt P20272)', '%', 101),
  ('CCCOc1ccc(C(=O)c2ccc3ccccc3n2)cc1', 'Cannabinoid receptor 1 (Rattus norvegicus) (UniProt P20272)', '%', 108),
  ('O=C(c1ccc(F)cc1)c1ccc2ccccc2n1', 'Cannabinoid receptor 1 (Rattus norvegicus) (UniProt P20272)', '%', 99),
  ('COc1ccc(C(=O)c2nccc3ccccc23)cc1', 'Cannabinoid receptor 1 (Rattus norvegicus) (UniProt P20272)', '%', 85),
  ('O=C(c1cc(C(F)(F)F)cc(C(F)(F)F)c1)c1ccc2ccccc2n1', 'Cannabinoid receptor 1 (Rattus norvegicus) (UniProt P20272)', '%', 108),
  ('COc1cccc(C(=O)c2ccc3ccccc3n2)c1', 'Cannabinoid receptor 1 (Rattus norvegicus) (UniProt P20272)', '%', 102),
  ('CCOc1ccc(C(=O)c2ccc3ccccc3n2)cc1', 'Cannabinoid receptor 1 (Rattus norvegicus) (UniProt P20272)', '%', 100),
  ('O=C(c1cccc(F)c1)c1ccc2ccccc2n1', 'Cannabinoid receptor 1 (Rattus norvegicus) (UniProt P20272)', '%', 106),
  ('O=C(c1cccc(C(F)(F)F)c1)c1nccc2ccccc12', 'Cannabinoid receptor 1 (Rattus norvegicus) (UniProt P20272)', '%', 106),
  ('O=C(c1ccc2ccccc2n1)c1ccccc1C(F)(F)F', 'Cannabinoid receptor 1 (Rattus norvegicus) (UniProt P20272)', '%', 102),
  ('O=C(c1ccc(Cl)c(Cl)c1)c1ccc2ccccc2n1', 'Cannabinoid receptor 1 (Rattus norvegicus) (UniProt P20272)', '%', 100),
  ('CN(C)c1ccc(C(=O)c2nccc3ccccc23)cc1', 'Cannabinoid receptor 1 (Rattus norvegicus) (UniProt P20272)', '%', 99);
